Just for reference, paper PMC5320539 is where these values come from.

IC50 values for the binders below.
# TARGET_DESC: Bcl-xL ΔTM (Bcl-xL deletion mutant lacking the transmembrane domain) (human)
# TEST: DELFIA displacement assay
ASSAY_READOUT: IC50

[[record]]
binder = "Ac-CATQLRRFGDKLNFRQKLLN-NH2 [hNOXA (Ac-…-NH2)]"
assay_readout = "IC50"
experimental_result = "> 1000 nM"

[[record]]
binder = "Ac-CATQLRRFGDKLN-NH2 [hNOXAs (Ac-…-NH2)]"
assay_readout = "IC50"
experimental_result = "> 1000 nM"

